// AC50 lookup, one value per entry
- study_system: Cytochrome P450 2C19 (Homo sapiens)
- Sequence (P33261 whole entry): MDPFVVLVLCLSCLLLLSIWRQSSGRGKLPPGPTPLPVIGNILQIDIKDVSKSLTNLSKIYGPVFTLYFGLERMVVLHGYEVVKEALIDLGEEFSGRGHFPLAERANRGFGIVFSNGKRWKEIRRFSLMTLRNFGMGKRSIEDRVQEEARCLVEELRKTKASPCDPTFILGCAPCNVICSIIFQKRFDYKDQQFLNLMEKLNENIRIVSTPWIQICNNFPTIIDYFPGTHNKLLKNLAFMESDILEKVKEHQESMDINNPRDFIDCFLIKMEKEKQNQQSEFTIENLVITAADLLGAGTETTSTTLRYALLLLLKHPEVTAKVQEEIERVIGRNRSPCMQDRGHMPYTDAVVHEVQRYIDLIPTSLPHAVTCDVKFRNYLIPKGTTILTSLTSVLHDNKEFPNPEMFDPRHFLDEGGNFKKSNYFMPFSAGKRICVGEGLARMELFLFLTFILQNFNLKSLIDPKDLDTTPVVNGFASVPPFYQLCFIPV
- method_notes: Cytochrome panel assay with activity outcomes. Panel member name: p450-cyp2c19 Compounds with AC50 equal or less than 10 uM are considered active
- Assay type: functional
- conditions_used: read-out: AC50
Peptide text beside a SMILES is read from it. * marks the point of attachment. Boc = CC(C)(C)OC(=O)*

Example entries begin here.
compound	study_system	result
O=C(Nc1cccnc1)c1ccc2snnc2c1	Cytochrome P450 2C19 (Homo sapiens)	17.8 µM (inconclusive)
O=C(O)c1ccccc1C(=O)NCc1ccc(F)cc1	Cytochrome P450 2C19 (Homo sapiens)	28.2 µM (inconclusive)
CC(C)C(NC(=O)OC(C)(C)C)C(=O)N1CCCC1C(=O)NC(Cc1ccccc1)C(N)=O (stereo not drawn) (Boc-Val-Pro-Phe-NH2; configuration not given here)	Cytochrome P450 2C19 (Homo sapiens)	1.12 µM (inconclusive)
O=C(O)C1CCCN1C(=O)OCc1ccccc1 (stereo not given)	Cytochrome P450 2C19 (Homo sapiens)	15.8 µM (inconclusive)

Item COC(=O)c1[nH]c(C)c(C(=O)C2=C(O)C(=O)N(CCN(C)C)C2c2cccs2)c1C (stereo not given) has what recorded AC50? 14.1 µM (inconclusive)
